target of assay: T1, human beta-Klotho (human, UniProt Q86Z14 1-1044)
T1 sequence (looked up): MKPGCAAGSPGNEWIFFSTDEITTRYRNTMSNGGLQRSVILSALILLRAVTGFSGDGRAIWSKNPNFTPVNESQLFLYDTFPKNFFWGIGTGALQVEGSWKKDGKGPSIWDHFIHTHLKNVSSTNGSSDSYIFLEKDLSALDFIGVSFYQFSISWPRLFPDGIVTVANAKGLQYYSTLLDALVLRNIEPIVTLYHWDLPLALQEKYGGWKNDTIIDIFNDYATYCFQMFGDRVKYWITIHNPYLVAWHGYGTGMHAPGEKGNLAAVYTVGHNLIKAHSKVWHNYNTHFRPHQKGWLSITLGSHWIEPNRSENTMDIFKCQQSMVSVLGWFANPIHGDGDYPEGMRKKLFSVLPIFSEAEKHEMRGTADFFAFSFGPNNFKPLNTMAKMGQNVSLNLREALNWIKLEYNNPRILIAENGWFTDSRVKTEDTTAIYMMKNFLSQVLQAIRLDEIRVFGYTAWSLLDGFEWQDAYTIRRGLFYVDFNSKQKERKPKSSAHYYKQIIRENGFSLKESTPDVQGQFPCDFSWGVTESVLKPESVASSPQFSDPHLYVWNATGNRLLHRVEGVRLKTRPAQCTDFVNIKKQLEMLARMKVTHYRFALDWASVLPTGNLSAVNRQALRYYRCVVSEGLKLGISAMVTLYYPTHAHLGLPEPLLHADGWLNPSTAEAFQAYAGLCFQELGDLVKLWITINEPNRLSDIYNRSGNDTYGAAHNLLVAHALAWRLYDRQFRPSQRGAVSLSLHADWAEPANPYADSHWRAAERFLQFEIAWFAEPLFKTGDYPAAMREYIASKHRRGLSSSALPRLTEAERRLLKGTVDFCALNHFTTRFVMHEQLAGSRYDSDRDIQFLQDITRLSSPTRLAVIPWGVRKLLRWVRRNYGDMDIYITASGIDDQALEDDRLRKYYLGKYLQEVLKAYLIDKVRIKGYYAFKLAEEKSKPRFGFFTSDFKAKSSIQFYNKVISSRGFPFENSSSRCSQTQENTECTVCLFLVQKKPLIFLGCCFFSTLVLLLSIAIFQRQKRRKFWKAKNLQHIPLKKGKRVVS
assay remarks: cell-based or functional assay
readout: pERK-HEK293-Beta-klotho without HSA [EC50 (nM)] Mean Value
Answer with a number only, understood to be in nM.

The examples below pair each entry with its known result.
Asked: # lookup: pERK-HEK293-Beta-klotho without HSA [EC50 (nM)] Mean Value of [N121Q] Ala-FGF21 (ligand) AHPIPDSSPLLQFGGQVRQRYLYTDDAQQTEAHLEIREDGTVGGAADQSPESLLQLKALKPGVIQILGVKTSRFLCQRPDGALYGSLHFDPEACSFRELLLEDGYNVYQSEAHGLPLHLPGQKSPHRDPAPRGPARFLPLPGLPPALPEPPGILAPQPPDVGSSDPLSMVGPSQGRSPSYAS
Given back: 2.3

Asked: # lookup: pERK-HEK293-Beta-klotho without HSA [EC50 (nM)] Mean Value of Met-FGF21 (Compound A) (ligand) MHPIPDSSPLLQFGGQVRQRYLYTDDAQQTEAHLEIREDGTVGGAADQSPESLLQLKALKPGVIQILGVKTSRFLCQRPDGALYGSLHFDPEACSFRELLLEDGYNVYQSEAHGLPLHLPGNKSPHRDPAPRGPARFLPLPGLPPALPEPPGILAPQPPDVGSSDPLSMVGPSQGRSPSYAS
Given back: 1.6

Asked: # lookup: pERK-HEK293-Beta-klotho without HSA [EC50 (nM)] Mean Value of [S71C, N121Q, L166F, S167G, M168L, des170, 173aA, G174V, Y179F, A180E, des181]Ala-FGF21 (ligand) AHPIPDSSPLLQFGGQVRQRYLYTDDAQQTEAHLEIREDGTVGGAADQSPESLLQLKALKPGVIQILGVKTCRFLCQRPDGALYGSLHFDPEACSFRELLLEDGYNVYQSEAHGLPLHLPGQKSPHRDPAPRGPARFLPLPGLPPALPEPPGILAPQPPDVGSSDPFGLVPSQAVRSPSFE
Given back: 1.8

Asked: # lookup: pERK-HEK293-Beta-klotho without HSA [EC50 (nM)] Mean Value of [N121Q]Met-FGF21 (ligand) MHPIPDSSPLLQFGGQVRQRYLYTDDAQQTEAHLEIREDGTVGGAADQSPESLLQLKALKPGVIQILGVKTSRFLCQRPDGALYGSLHFDPEACSFRELLLEDGYNVYQSEAHGLPLHLPGQKSPHRDPAPRGPARFLPLPGLPPALPEPPGILAPQPPDVGSSDPLSMVGPSQGRSPSYAS
Given back: 1

Asked: # lookup: pERK-HEK293-Beta-klotho without HSA [EC50 (nM)] Mean Value of [S71C, N121Q, L166F, S167G, M168L, 173aA, G174V, Y179F, A180E, des181]Ala-FGF21 (ligand) AHPIPDSSPLLQFGGQVRQRYLYTDDAQQTEAHLEIREDGTVGGAADQSPESLLQLKALKPGVIQILGVKTCRFLCQRPDGALYGSLHFDPEACSFRELLLEDGYNVYQSEAHGLPLHLPGQKSPHRDPAPRGPARFLPLPGLPPALPEPPGILAPQPPDVGSSDPFGLVGPSQAVRSPSFE
Given back: 0.4

Asked: # lookup: pERK-HEK293-Beta-klotho without HSA [EC50 (nM)] Mean Value of [S71C, N121Q, L166F, S167G, M168L, P171L, S172E, Q173A, G174V, Y179F, A180E, des181]Ala-FGF21 (ligand) AHPIPDSSPLLQFGGQVRQRYLYTDDAQQTEAHLEIREDGTVGGAADQSPESLLQLKALKPGVIQILGVKTCRFLCQRPDGALYGSLHFDPEACSFRELLLEDGYNVYQSEAHGLPLHLPGQKSPHRDPAPRGPARFLPLPGLPPALPEPPGILAPQPPDVGSSDPFGLVGLEAVRSPSFE
Given back: 0.6

Continuing:
Asked: # lookup: pERK-HEK293-Beta-klotho without HSA [EC50 (nM)] Mean Value of [K56R, K59R, K69R, K122R]Gly-FGF21 (ligand) GHPIPDSSPLLQFGGQVRQRYLYTDDAQQTEAHLEIREDGTVGGAADQSPESLLQLRALRPGVIQILGVRTSRFLCQRPDGALYGSLHFDPEACSFRELLLEDGYNVYQSEAHGLPLHLPGNRSPHRDPAPRGPARFLPLPGLPPALPEPPGILAPQPPDVGSSDPLSMVGPSQGRSPSYAS
Given back: 8.3

Asked: # lookup: pERK-HEK293-Beta-klotho without HSA [EC50 (nM)] Mean Value of N-alpha(4-{[2-(2-{2-[2-(2-{2-[(S)-4-Carboxy-4-(17-carboxyheptadecanoylamino)butyrylamino]-ethoxy}ethoxy)acetylamino]ethoxy}ethoxy)acetylamino]methyl}benzyl) … (ligand, alpha amino group of the N-terminal Ala carries one 4-{[2-(2-{2-[2-(2-{2-[(S)-4-carboxy-4-(17-carboxyheptadecanoylamino)butyrylamino]ethoxy}ethoxy)acetylamino]ethoxy}ethoxy)acetylamino]methyl}benzyl group) AHPIPDSSPLLQFGGQVRQRYLYTDDAQQTEAHLEIREDGTVGGAADQSPESLLQLKALKPGVIQILGVKTCRFLCQRPDGALYGSLHFDPEACSFRELLLEDGYNVYQSEAHGLPLHLPGQKSPHRDPAPRGPARFLPLPGLPPALPEPPGILAPQPPDVGSSDPFGLVGLEAVRSPSFE
Given back: 0.4

Asked: # lookup: pERK-HEK293-Beta-klotho without HSA [EC50 (nM)] Mean Value of N-alpha-bis-(4-{[2-(2-{2-[2-(2-{2-[(S)-4-carboxy-4-(17-carboxyheptadecanoylamino)butyrylamino]ethoxy}ethoxy)acetylamino]ethoxy}ethoxy)acetylamino]methyl}benzyl) … (ligand, alpha amino group of the N-terminal Gly carries two 4-{[2-(2-{2-[2-(2-{2-[(S)-4-carboxy-4-(17-carboxyheptadecanoylamino)butyrylamino]ethoxy}ethoxy)acetylamino]ethoxy}ethoxy)acetylamino]methyl}benzyl groups) GHPIPDSSPLLQFGGQVRQRYLYTDDAQQTEAHLEIREDGTVGGAADQSPESLLQLRALRPGVIQILGVRTSRFLCQRPDGALYGSLHFDPEACSFRELLLEDGYNVYQSEAHGLPLHLPGNRSPHRDPAPRGPARFLPLPGLPPALPEPPGILAPQPPDVGSSDPLSMVGPSQGRSPSYAS
Given back: 4.6

Asked: # lookup: pERK-HEK293-Beta-klotho without HSA [EC50 (nM)] Mean Value of [N121Q, L166F, S167G, M168L, P171L, S172E, Q173A, G174V, Y179F, A180E, des181]Ala-FGF21 (ligand) AHPIPDSSPLLQFGGQVRQRYLYTDDAQQTEAHLEIREDGTVGGAADQSPESLLQLKALKPGVIQILGVKTSRFLCQRPDGALYGSLHFDPEACSFRELLLEDGYNVYQSEAHGLPLHLPGQKSPHRDPAPRGPARFLPLPGLPPALPEPPGILAPQPPDVGSSDPFGLVGLEAVRSPSFE
Given back: 0.7
